System: UACC-62 melanoma
Assay: NCI tumour cell line growth inhibition, 48 h

{"Compound": "Fc1ccc(-c2ncn(C3CCNCC3)c2-c2ccnc(Oc3ccc4c(c3)OCO4)n2)cc1", "Target Under Test": "UACC-62 melanoma", "TGI": "> 25 µM"}
{"Compound": "CC(=O)O[C@H]1CC[C@@]2(C)C(=CC[C@@H]3[C@@H]2CC[C@]2(C)C(=N/O)/C(=C\\c4ccccc4)C[C@@H]32)C1", "Target Under Test": "UACC-62 melanoma", "TGI": "31.9 µM"}
{"Compound": "CCCn1c2c(c3c(O)cccc31)C(=O)c1ccccc1-2", "Target Under Test": "UACC-62 melanoma", "TGI": "69.3 µM"}
{"Compound": "Cc1ccc(/C=C(\\C#N)c2cc3ccccc3n2C)cc1", "Target Under Test": "UACC-62 melanoma", "TGI": "> 100 µM"}
{"Compound": "CCCn1c(SCCSc2c3ccccc3c(-c3nc(F)nc(F)n3)n2CCC)c2ccccc2c1-c1nc(F)nc(F)n1", "Target Under Test": "UACC-62 melanoma", "TGI": "> 100 µM"}
{"Compound": "Fc1cccc(F)c1C1SCc2nc3cc(Cl)c(Cl)cc3n21 (centres undefined)", "Target Under Test": "UACC-62 melanoma", "TGI": "> 100 µM"}
{"Compound": "C=C(C)[C@@H]1CCC=C2CC[C@]3(C)[C@H](CC[C@@H]4[C@@]5(C)CCCNC(C)(C)[C@@H]5CC[C@]43C)[C@H]21", "Target Under Test": "UACC-62 melanoma", "TGI": "3.84 µM"}
{"Compound": "[2H]C([2H])([2H])NC(=O)c1nnc(NC(=O)C2CC2)cc1Nc1cccc(-c2ncn(C)n2)c1OC", "Target Under Test": "UACC-62 melanoma", "TGI": "> 100 µM"}
{"Compound": "Cn1nc2ccc(Nc3cc(=O)[nH]c4ccc5nn(C)nc5c34)cc2n1", "Target Under Test": "UACC-62 melanoma", "TGI": "> 100 µM"}
